assay: Single dose pharmacokinetic (SDPK) study; format: in vivo; settings: plasma, iv, 5 mg/kg; Rat, single dose

smiles-code	unit-string	clearance
COc1ccc2c(c1)C(c1ccccc1Cl)=Nc1c(n[nH]c1C)N2	mL/min/kg	5.6

###

experiment: Single dose pharmacokinetic (SDPK) study; type: in vivo; conditions: male, plasma, iv, 2 mg/kg; Nude Mouse, single dose

smiles-code	unit-string	clearance
COc1ccc2c(c1)C(c1ccccc1Cl)=Nc1c(n[nH]c1C)N2	mL/min/kg	6.3

###

biological target: Aurora kinase B (Homo sapiens, UniProt Q96GD4)
Sequence (Q96GD4 whole entry): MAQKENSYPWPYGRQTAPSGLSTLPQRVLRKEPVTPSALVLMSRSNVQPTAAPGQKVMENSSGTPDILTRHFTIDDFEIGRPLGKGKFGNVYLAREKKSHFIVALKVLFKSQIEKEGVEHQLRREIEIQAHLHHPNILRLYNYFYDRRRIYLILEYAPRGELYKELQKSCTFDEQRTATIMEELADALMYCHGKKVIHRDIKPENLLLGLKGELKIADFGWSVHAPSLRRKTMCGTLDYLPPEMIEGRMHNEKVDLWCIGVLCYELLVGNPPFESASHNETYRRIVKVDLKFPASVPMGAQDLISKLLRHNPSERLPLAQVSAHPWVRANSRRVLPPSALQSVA

compound	IC50, µM
COc1ccc2c(c1)C(c1ccccc1Cl)=Nc1c(n[nH]c1C)N2 [R1498]	0.167

###

test: Single dose pharmacokinetic (SDPK) study; assay type: in vivo; settings: plasma, iv, 5 mg/kg; Rat, single dose; read-out: Vdss
test-readout: Vd (L/kg)

compound	observed
COc1ccc2c(c1)C(c1ccccc1Cl)=Nc1c(n[nH]c1C)N2 [R1498]	1.6

###

experiment: Dose range finding and toxicokinetic study; assay type: in vivo; conditions: both sexes, dog, in vivo, po; beagle dogs (F/M), 2-week DRF, bid dosing

smiles-code	MTD at 2 week
COc1ccc2c(c1)C(c1ccccc1Cl)=Nc1c(n[nH]c1C)N2	> 15 mg/kg

###

assay: Plasma and tumor exposure at steady state in xenograft-bearing mice; type: in vivo, nude mice; details: nude, mouse, plasma, po, 25 mg/kg, SGC-7901 (model cell empty, from line above), 25 mpk, single dose, PO (PK arm); read-out: Plasma AUC @ SS

smiles-code	AUC [ng·h/mL]
COc1ccc2c(c1)C(c1ccccc1Cl)=Nc1c(n[nH]c1C)N2	70100

###

Test: Plasma and tumor exposure at steady state in xenograft-bearing mice
Assay type: in vivo, nude mice
Conditions: nude, mouse, plasma, po, 6.25 mg/kg, BGC-823, 6.25 mpk, bid, PO; read-out: Plasma AUC @ SS
Text: Supplementary file pone.0065264.s004.doc: Table S3 ED60/90 estimation from the R1498 exposure at steady state in tumors. The exposure in plasma and tumor at steady state were plot against tumor growth inhibiton rate to estimate the ED60/E90 doses. (DOC) Click here for additional data file.

compound	AUC, ng·h/mL
COc1ccc2c(c1)C(c1ccccc1Cl)=Nc1c(n[nH]c1C)N2 [R1498]	10800

###

test: Plasma and tumor exposure at steady state in xenograft-bearing mice; assay type: in vivo, nude mice; conditions: nude, mouse, plasma, po, 3.125 mg/kg, BEL-7404, 3.125 mpk, bid, PO; read-out: Plasma AUC @ SS

smiles-code	unit-string	AUC
COc1ccc2c(c1)C(c1ccccc1Cl)=Nc1c(n[nH]c1C)N2	ng·h/mL	3560

###

test: Single dose pharmacokinetic (SDPK) study; type: in vivo; conditions: plasma, iv, 5 mg/kg; Monkey, single dose
test-readout: clearance (mL/min/kg)

smiles-code	observed
COc1ccc2c(c1)C(c1ccccc1Cl)=Nc1c(n[nH]c1C)N2	25.3

###

target: UniProt O14965
Sequence (O14965 whole entry): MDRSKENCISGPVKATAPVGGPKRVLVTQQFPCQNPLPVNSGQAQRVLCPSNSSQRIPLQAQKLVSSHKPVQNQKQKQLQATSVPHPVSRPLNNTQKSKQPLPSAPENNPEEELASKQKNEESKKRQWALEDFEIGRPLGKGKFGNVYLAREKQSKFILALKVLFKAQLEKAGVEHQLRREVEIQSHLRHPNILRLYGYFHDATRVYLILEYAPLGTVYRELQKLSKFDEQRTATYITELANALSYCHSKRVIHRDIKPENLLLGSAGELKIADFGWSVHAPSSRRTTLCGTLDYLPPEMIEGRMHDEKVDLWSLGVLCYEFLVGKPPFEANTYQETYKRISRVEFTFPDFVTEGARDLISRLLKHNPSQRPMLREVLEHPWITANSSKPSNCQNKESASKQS
pIC50: −log10 of the molar value.
test-readout: pIC50

smiles-code	test-readout	observed
COc1ccc2c(c1)C(c1ccccc1Cl)=Nc1c(n[nH]c1C)N2	pIC50	7.17

###

assay: Single dose pharmacokinetic (SDPK) study; type: in vivo; conditions: plasma, iv, 5 mg/kg; Dog, single dose

molecule	clearance, mL/min/kg
COc1ccc2c(c1)C(c1ccccc1Cl)=Nc1c(n[nH]c1C)N2 [R1498]	1.9

These entries and their values trace back to paper PMC3673949.
